Measured values drawn from BigSolDB 2.1 for this set.

Settings: in 2-butanone, 285.1 K
ENDPOINT_LABEL: solubility (mole fraction)
// print number alone

Value of solubility (mole fraction) reported for the compound "CC[C@H](C)C(=O)O[C@H]1C[C@@H](C)C=C2C=C[C@H](C)[C@H](CC[C@@H]3C[C@@H](O)CC(=O)O3)[C@H]21" is 0.00752

###

Settings: in methyl acetate, 294.6 K
ENDPOINT_LABEL: solubility (mole fraction)
When you answer, write just the number.

Reported solubility (mole fraction) ( "CC[C@H](C)C(=O)O[C@H]1C[C@@H](C)C=C2C=C[C@H](C)[C@H](CC[C@@H]3C[C@@H](O)CC(=O)O3)[C@H]21" ) = 0.00417
